experimentDescription: Drug repurposing screens with cells derived from glioblastoma tumor samples (AID 1345199); further: on the % scale 0 is the no-effect control and ±100 the full control effect; nearly all actives have a fitted effect of over 40% in size
testContext: GBM patient neurospheres viability, ATP luminescence, 48 h; at 46.1 µM (top of the series); tumour line C
Inconclusive results are not listed.
Recorded activity, negative = cell killing for the following compounds
testReadout: activity, negative = cell killing (%)

CC(=O)O[C@H]1CC[C@@]2(C)C(=CC[C@@H]3[C@@H]2CC[C@]2(C)C(c4cccnc4)=CC[C@@H]32)C1 | -13.1
COc1ccc(CNCC(O)COc2ccc3[nH]c(=O)ccc3c2)cc1OC (stereo unspecified) | 15.6
CC1(C)S[C@@H]2[C@H](NC(=O)[C@H](N)c3ccccc3)C(=O)N2[C@H]1C(=O)OCOC(=O)[C@@H]1N2C(=O)C[C@H]2S(=O)(=O)C1(C)C | -15.8
CC(=O)OCC(=O)[C@@]1(O)[C@H](C)C[C@H]2[C@@H]3C[C@H](F)C4=CC(=O)C=C[C@]4(C)[C@H]3[C@@H](O)C[C@@]21C | 13.2
CC1(C)C2CC[C@]3(C)[C@H](C(=O)C=C4[C@@H]5C[C@@](C)(C(=O)O)CC[C@]5(C)CC[C@]43C)[C@@]2(C)CC[C@@H]1O[C@H]1O[C@H](C(=O)O)[C@@H](O)[C@H](O)[C@H]1O[C@@H]1O[C@H](C(=O)O)[C@@H](O)[C@H](O)[C@H]1O (stereo partly specified) | -1.2
O=C(Nc1ccc(/C=C/c2ccc(NC(=O)c3cc(S(=O)(=O)O)c4cccnc4c3O)cc2S(=O)(=O)O)c(S(=O)(=O)O)c1)c1cc(S(=O)(=O)O)c2cccnc2c1O | -10.9

----------
Recorded Potency for the following molecules
Test system: HEK293
experimentDescription: Cytotoxic Profiling of Annotated Libraries Using Quantitative High-Throughput Screening (AID 1296008); further: nearly all actives have a fitted effect of over 60% in size; further: potency means the concentration at half of the fitted maximal effect
testContext: Five cell lines viability, CellTiter-Glo ATP luminescence, 48-72 h
Records with an inconclusive call do not appear. Calls of active or inactive are those of the source. The call rests on the fitted dose curve; in most records, active means well fitted inhibition curve with a large enough effect; inconclusive means small, poorly fitted or top-dose-only effect; inactive means flat fitted curve, though single readings scatter.
testReadout: Potency

Clc1ccc(Nc2nc3ccccc3c3nc(C4CCCCC4)[nH]c23)cc1Cl | 11.6 µM (active)
COc1ccc(N(C(=O)Nc2c(C)cccc2C)c2cc(Nc3ccc(N4CCN(C)CC4)cc3)ncn2)c(OC)c1 | 14.6 µM (active)
CC(C)S(=O)(=O)NC[C@H](C)c1ccc(-c2ccc(CCNS(C)(=O)=O)cc2)cc1 | 5.8 µM (active)
COc1ccc(Oc2c(Cl)cnn(-c3cc(C)cc(C)c3)c2=O)cc1 | 8.2 µM (active)
COc1ccc(CNc2nc(N(CCO)CCO)nc3c2ncn3C(C)C)cc1 | 4.61 µM (active)

----------
System: KB-3-1
experimentDescription: Cytotoxic Profiling of Annotated Libraries Using Quantitative High-Throughput Screening (AID 1296008); further: nearly all actives have a fitted effect of over 60% in size
testContext: Five cell lines viability, CellTiter-Glo ATP luminescence, 48-72 h
Records with an inconclusive call do not appear. The source made the active and inactive calls. Calls come from the whole dose curve; as a rule, active = well fitted inhibition curve with a large enough effect; inconclusive = small, poorly fitted or top-dose-only effect; inactive = flat fitted curve, though single readings scatter. *1 amine or outer side, *2 acyl side, *3 side chain or, on linkers, in order; H or OH if unused. Where a SMILES comes first, the peptide text is derived from it. Bridges are numbered along the chain shown (N, C = ends). [ ]: non-standard residue; d: D form. The star is where a group is joined. pTerphenylCO(4''-OnC5H11) = CCCCCOc1ccc(-c2ccc(-c3ccc(C(=O)*)cc3)cc2)cc1; Orn(4R-OH,5R-OH) = O=C([C@H](C[C@@H](O)[C@@H](O)N[*:3])N[*:1])[*:2]; hTyr(3S-OH,4S-OH) = N[C@H](C(=O)O)[C@H](O)[C@@H](O)c1ccc(O)cc1; Pro(3S-OH,4S-Me) = C[C@H]1CN[C@H](C(=O)O)[C@H]1O; Hyp = O=C(O)[C@@H]1C[C@@H](O)CN1
Classes used: label 1 = active, label 0 = inactive

CC1=C(c2ccc(NC(=O)c3c(F)cccc3F)cc2)CN(c2nccs2)CC1 | label 0
COc1ccc2c(NC(=O)Nc3cccc(C(F)(F)F)n3)ccnc2c1 | label 0
COc1ccc(CN2CCN(CCCSc3cc(C(C)(C)C)c(O)c(C(C)(C)C)c3)CC2)c(OC)c1OC | label 0
Cn1ncc2cc(-c3cnc(N)c(Cl)c3N3CCC4(CCNC4=O)CC3)ccc21 | label 0
CC1(C)CC[C@]23CO[C@@]4(CCC5[C@@]6(C)CC[C@H](O[C@@H]7OC[C@H](O[C@@H]8O[C@H](CO)[C@@H](O)[C@H](O)[C@H]8O[C@@H]8OC[C@@H](O)[C@H](O)[C@H]8O)[C@H](O)[C@H]7O)[C@@](C)(CO)C6CC[C@@]5(C)[C@]4(C)CC2=O)[C@@H]3C1 (stereo partly specified) | label 0
C[C@H]1CC[C@@]2(OC1)O[C@H]1CC3[C@@H]4CC[C@@H]5C[C@@H](O[C@@H]6O[C@H](CO)[C@@H](O[C@@H]7O[C@H](CO[C@@H]8OC[C@@H](O)[C@H](O)[C@H]8O)[C@@H](O[C@@H]8O[C@H](CO)[C@H](O)[C@H](O)[C@H]8O)[C@H](O)[C@H]7O)[C@H](O)[C@H]6O)CC[C@]5(C)C4CC[C@]3(C)[C@H]1[C@@H]2C (stereo partly specified) | label 0
NC(=O)c1ccccc1Nc1ccnc(Nc2cccc(O)c2)n1 | label 1
COc1cc(CCc2cc(NC(=O)c3ccc(N4CC(C)NC(C)C4)cc3)n[nH]2)cc(OC)c1 (stereo unspecified) | label 1
CCC/C=C/C(=O)O[C@H]1CC(C)(C)CC2[C@@]13[C@H](O)C[C@]1(C)[C@@]2(CCC2[C@@]4(C)CC[C@H](O[C@@H]5O[C@H](C(=O)O)[C@@H](O)[C@H](O[C@@H]6O[C@H](CO)[C@H](O)[C@H](O)[C@H]6O[C@@H]6O[C@@H](C)[C@H](O)[C@@H](O)[C@H]6O[C@@H]6OC[C@](O)(CO)[C@H]6O)[C@H]5O[C@@H]5O[C@H](CO)[C@H](O)[C@H](O)[C@H]5O)C(C)(C)C4CC[C@]21C)O[C@H]3O (stereo partly specified) | label 0
C=C1[C@H]2CC[C@H](C(=O)O)[C@@]23CC[C@H](C3)C1(C)C | label 0
CC(C)S(=O)(=O)c1ccc2nccc(Nc3ccc4scnc4c3)c2c1 | label 0
O=C(O)CSc1cc(NS(=O)(=O)c2ccc(Br)cc2)c2ccccc2c1O | label 1
NCC(CNc1nc(Nc2cccc(NC(=O)N3CCCC3)c2)ncc1I)C(=O)c1cccs1 (stereo unspecified) | label 1
C=C(C)C1CC(O)C(C)C12CC(O)C1(C)OC1C2O (stereo unspecified) | label 1
C[C@@H]1O[C@@H](O[C@H]2CC[C@@]3(C)C(CC[C@]4(C)C3CC=C3[C@@H]5CC(C)(C)CC[C@]5(C(=O)O[C@@H]5O[C@H](CO)[C@@H](O)[C@H](O)[C@H]5O)CC[C@]34C)[C@]2(C)CO)[C@H](O)[C@H](O[C@@H]2O[C@H](CO)[C@@H](O)[C@H](O)[C@H]2O)[C@H]1O (stereo partly specified) | label 0
COc1c(C(C)C)c(O)c(O)c2c1C(OC)[C@H]1OC(=O)[C@@]23CCCC(C)(C)[C@H]13 (stereo partly specified) | label 0
CC#CCn1c(N2CCCC(N)C2)nc2c1c(=O)n(Cc1nc(C)c3ccccc3n1)c(=O)n2C (stereo unspecified) | label 0
O=C(O)CCc1nccc2c1[nH]c1ccccc12 | label 0
Cn1ncnc1[C@@H]1c2n[nH]c(=O)c3cc(F)cc(c23)N[C@H]1c1ccc(F)cc1 | label 0
CCCCCOc1ccc(-c2ccc(-c3ccc(C(=O)N[C@H]4C[C@@H](O)[C@@H](O)NC(=O)[C@@H]5[C@@H](O)[C@@H](C)CN5C(=O)[C@H]([C@@H](C)O)NC(=O)[C@H]([C@H](O)[C@@H](O)c5ccc(O)cc5)NC(=O)[C@@H]5C[C@@H](O)CN5C(=O)[C@H]([C@@H](C)O)NC4=O)cc3)cc2)cc1 ({pTerphenylCO(4''-OnC5H11)}-[Orn(4R-OH,5R-OH)]T[Hyp][hTyr(3S-OH,4S-OH)]T[Pro(3S-OH,4S-Me)]; lactam 1-C) | label 0
CC(C)(CO)c1cc2cc(NC(=O)C3(c4ccc5c(c4)OC(F)(F)O5)CC3)c(F)cc2n1CC(O)CO (stereo unspecified) | label 0
COc1ccc(-c2c(C)nn3c(NCCN4CCOCC4)cc(C)nc23)cc1OC | label 0
O=C(CCl)Nc1cccc(NC2=NS(=O)(=O)c3ccccc32)c1 | label 1
CCC(C)C(=O)OC12C(OC(C)=O)C(C)C3(O)C(C=C(CO)CC4(O)C(=O)C(C)=CC43)C1C2(C)C (stereo unspecified) | label 0
C=C1C(OC2OC(CO)C(O)C(O)C2O)CC2C(C)(C)C(O)CCC2(C)C1CC/C(C)=C\COC(=O)CC(=O)O (stereo unspecified) | label 0
COC1=CC(=O)C=C(C)C12Oc1c(Cl)c(OC)cc(OC)c1C2=O (stereo unspecified) | label 0
